B1: glmS ribozyme (parent)
chain: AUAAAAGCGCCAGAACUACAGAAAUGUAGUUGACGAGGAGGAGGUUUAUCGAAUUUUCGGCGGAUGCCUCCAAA

Variants of: B1
Experiment: self-cleavage kobs at 2500 uM GlcN6P; higher = faster cleavage; RNA array
Conditions: with glucosamine-6-phosphate
This sample holds only a part of the variants without activity.
Exercise: state measured self-cleavage kobs at 2500 uM GlcN6P for each of the variants provided.

Report self-cleavage kobs at 2500 uM GlcN6P for every entry below.
1. C16A A36C A42C U55C U56A U57G C58U C71G
2. C10U A15C G43U G63U
3. U45G A48U U55C
4. C67U U69G

1: < 1e-05 s⁻¹; 2: < 1e-05 s⁻¹; 3: 8.04e-05 s⁻¹; 4: 4.75e-05 s⁻¹

Report self-cleavage kobs at 2500 uM GlcN6P for every entry below.
1. C16U C34G C50G
2. A15G G29U C50G
3. U31C G41A A48U C67G
4. G21U U46A
5. A33C G35C U49G G59C
6. A36U G44A
7. A14C A33G C34G G37C G60C

["0.00012 s⁻¹", "5.06e-05 s⁻¹", "< 1e-05 s⁻¹", "0.00271 s⁻¹", "< 1e-05 s⁻¹", "< 1e-05 s⁻¹", "< 1e-05 s⁻¹"]

Report self-cleavage kobs at 2500 uM GlcN6P for every entry below.
1. G41C U45G C71U
2. G32A A33U G51U
3. G43A U45A
4. G9U C10G C11U C70U
5. A14C U30C G32A C58G
6. C16G C67G

1: 0.000157 s⁻¹; 2: < 1e-05 s⁻¹; 3: 2.63e-05 s⁻¹; 4: < 1e-05 s⁻¹; 5: 7.82e-05 s⁻¹; 6: 8.7e-05 s⁻¹

Report self-cleavage kobs at 2500 uM GlcN6P for every entry below.
1. G32U A64G G66A
2. A39C G43U A48U G51U
3. G35C G43U U69G
4. A14U G32C C50A C68G

1. 0.000236 s⁻¹
2. < 1e-05 s⁻¹
3. < 1e-05 s⁻¹
4. 0.000126 s⁻¹

Cited source: the supplement of paper PMC7125110
